system: rgRSV224 virus; test: microbe, parasite or virus in culture; assay type: cell-based, respiratory syncytial virus (RSV); settings: Table 2; selectivity index, CC50 (HeLa cytotoxicity) over EC50 (rgRSV224)
Item-by-item account of SI CC50/EC50

Below: 2 compounds and their reported SI CC50/EC50.
Compound smiles	Obs value
CC(C)CCn1c(Cn2c(=O)n(C3CC3)c3ccc(F)cc32)nc2cc(Br)ccc21	25508
O=C(CCCn1c(Cn2c(=O)n(C3CC3)c3ccncc32)nc2cc(Br)ccc21)N1CCCCS1(=O)=O	>84529

Let us examine a further case.
SI CC50/EC50 for CS(=O)(=O)NC(=O)CCCn1c(Cn2c(=O)n(C3CC3)c3ccncc32)nc2cc(Br)ccc21 is >99444
